Test system: human rhinovirus (HRV) serotypes, panel T
Assay: MIC50/MIC80 over panel T of fifteen human rhinovirus serotypes (HeLa cell CPE)
Format: cell-based
Conditions: minimum concentration required to inhibit 80% of the tested serotypes
REPORTED_ENDPOINT: MIC80 (µg/mL)

> print(dat)
                                    compound  reported.endpoint  measurement.units  recorded.measurement
 1  Cc1cc(-c2noc(C3CC3)n2)cc(C)c1OCCCc1cc(O)no1 [Example 36d]              MIC80              µg/mL                 0.371
 2  Cc1cc(CCCOc2ccc(-c3noc(C4CCC4)n3)cc2)on1 [Example 54e]              MIC80              µg/mL                0.1045
 3  Cc1cc(CCCOc2c(C)cc(-c3noc(C(F)F)n3)cc2Cl)on1 [Example 49d]              MIC80              µg/mL                    99
 4  Cc1cc(CCCOc2c(C)cc(-c3noc(CC(F)(F)F)n3)cc2C)on1              MIC80              µg/mL                    99
 5   Cc1cc(CCCOc2c(C)cc(-c3nc(N)no3)cc2C)on1              MIC80              µg/mL                 0.057
 6  Cc1cc(CCCOc2c(C)cc(-c3noc(CI)n3)cc2C)on1              MIC80              µg/mL                    99
 7  Cc1cc(CCCCCOc2c(Cl)cc(-c3noc(C(F)(F)F)n3)cc2Cl)on1 [Example 31c]              MIC80              µg/mL                 0.533
 8  Cc1cc(CCCOc2c(C)cc(-c3nc(C(F)(F)F)no3)cc2C)on1 [Example 46c]              MIC80              µg/mL                   0.1
 9  COCc1cc(CCCOc2c(C)cc(-c3noc(C(F)(F)F)n3)cc2C)on1              MIC80              µg/mL                0.0575
10  Cc1cc(CCCOc2c(C)cc(-c3noc(=O)[nH]3)cc2C)on1              MIC80              µg/mL                    99
11  CCc1cc(CCCOc2c(C)cc(-c3noc(C4CC4)n3)cc2C)on1              MIC80              µg/mL                 0.085
12  Cc1cc(CCCOc2c(C)cc(-c3noc(C(N)=O)n3)cc2C)on1              MIC80              µg/mL                 0.839
13  Cc1ccc(S(=O)(=O)OCc2nc(-c3cc(C)c(OCCCc4cc(C)no4)c(C)c3)no2)cc1              MIC80              µg/mL                    99
14  CC(=O)OC(C)c1nc(-c2cc(C)c(OCCCc3cc(C)no3)c(C)c2)no1 (stereo not drawn)              MIC80              µg/mL                0.2485
15  CCOc1cc(CCCOc2c(C)cc(-c3noc(C4CC4)n3)cc2C)on1              MIC80              µg/mL                  0.91
16  COCc1nc(-c2cc(C)c(OCCCc3cc(C)no3)c(C)c2)no1              MIC80              µg/mL                 0.037
17  Cc1cc(CCCOc2ccc(-c3noc(C(F)(F)F)n3)cc2)on1 [Example 32c]              MIC80              µg/mL                  2.86
18  CCc1cc(CCCOc2c(C)cc(-c3noc(C(F)(F)F)n3)cc2C)on1 [Example 28c]              MIC80              µg/mL                 0.119
19  Cc1cc(CCCOc2c(C)cc(-c3noc(N(C)C)n3)cc2C)on1              MIC80              µg/mL                 0.085
20  COCCc1cc(CCCOc2c(C)cc(-c3noc(C(F)(F)F)n3)cc2C)on1 [Example 29d]              MIC80              µg/mL                 0.715
21  CCOC(=O)c1cc(CCCOc2c(C)cc(-c3noc(C(F)(F)F)n3)cc2C)on1 [Example 56d]              MIC80              µg/mL                 0.634
22  Cc1cc(CCCOc2c(C)cc(-c3noc(C#N)n3)cc2C)on1              MIC80              µg/mL                 1.848
23  Cc1cc(CCCOc2c(C)cc(-c3noc(C(Cl)Cl)n3)cc2C)on1              MIC80              µg/mL                 0.145
24  CCOc1nc(-c2cc(C)c(OCCCc3cc(C)no3)c(C)c2)no1              MIC80              µg/mL                 0.055
25  Cc1cc(CCCOc2c(C)cc(-c3noc(CF)n3)cc2C)on1              MIC80              µg/mL                 0.046
26  Cc1cc(-c2noc(C(F)(F)F)n2)cc(C)c1OCCCc1cc(CCO)no1              MIC80              µg/mL                 0.045
27  CCOCc1cc(CCCOc2c(C)cc(-c3noc(C(F)(F)F)n3)cc2C)on1              MIC80              µg/mL                 0.087
28  COCc1cc(CCCOc2c(C)cc(-c3noc(C4CC4)n3)cc2C)on1              MIC80              µg/mL                 0.038
29  Cc1cc(-c2noc(C(F)(F)F)n2)cc(C)c1OCCCc1cc(CO)no1 [Example 34d]              MIC80              µg/mL                 0.042
30  Cc1cc(CCCOc2c(C)cc(-c3noc(=N)[nH]3)cc2C)on1              MIC80              µg/mL                    99
31  Cc1cc(CCCOc2c(C)cc(-c3noc(C(Cl)(Cl)Cl)n3)cc2C)on1              MIC80              µg/mL                 0.662
32  Cc1cc(-c2noc(C(F)(F)F)n2)cc(C)c1OCCCc1cc(C2CC2)no1              MIC80              µg/mL                 0.204
33  Cc1cc(-c2noc(C3CC3)n2)cc(C)c1OCCCc1cc(C2CC2)no1              MIC80              µg/mL                 0.087
34  Cc1cc(CCCOc2c(C)cc(-c3noc(C4CC4)n3)cc2C)on1              MIC80              µg/mL                 0.057
35  CN=c1[nH]c(-c2cc(C)c(OCCCc3cc(C)no3)c(C)c2)no1              MIC80              µg/mL                 0.128
36  CSc1nc(-c2cc(C)c(OCCCc3cc(C)no3)c(C)c2)no1 [Example 58d]              MIC80              µg/mL                    99

----------
Tested on: human rhinovirus (HRV) serotypes, panel T
Assay: MIC50/MIC80 over panel T of fifteen human rhinovirus serotypes (HeLa cell CPE)
Assay type: cell-based
Details: minimum concentration required to inhibit 80% of the tested serotypes
I'd appreciate it if you marked entries condition met when MIC80 is lower than 0.04 µg/mL and condition not met when it is not.

> print(dat)
                                   molecule                            assayed.target       answer.label
1  COc1nc(-c2cc(C)c(OCCCc3cc(C)no3)c(C)c2)no1  human rhinovirus (HRV) serotypes, panel T      condition met
2  Cc1cc(CCCOc2c(C)cc(-c3noc(C(F)(F)F)n3)cc2C)on1  human rhinovirus (HRV) serotypes, panel T  condition not met
3  Cc1cc(-c2noc(C3CC3)n2)cc(C)c1OCCCc1cc(CO)no1 [Example 39c]  human rhinovirus (HRV) serotypes, panel T      condition met
4  Cc1cc(-c2noc(C(F)(F)F)n2)cc(C)c1OCCCc1cc(C(=O)O)no1 [Example 56e]  human rhinovirus (HRV) serotypes, panel T  condition not met
5  Cc1cc(-c2noc(C3CC3)n2)cc(C)c1OCCCc1cc(OCCO)no1  human rhinovirus (HRV) serotypes, panel T  condition not met
